Where these numbers come from: patent US20260274895A1

Conditions: PAMPA, PAMPA_Papp_Avg (apparent permeability)
Where a SMILES comes first, the peptide text is derived from it. [ ]: non-standard residue; d: D form. dNMeF = CN[C@H](Cc1ccccc1)C(=O)O; NMeL = CN[C@@H](CC(C)C)C(=O)O; dNMeL = CN[C@H](CC(C)C)C(=O)O; NMeV = CN[C@H](C(=O)O)C(C)C; NMeA = CN[C@@H](C)C(=O)O
Experimental endpoint: Papp (×10⁻⁶ cm/s)
Give the value, in units of ×10⁻⁶ cm/s, as a plain number.

Query string: Fill in reported Papp for this entry: CC[C@@H](C)[C@H]1NC(=O)[C@H](CC(C)C)N(C)C(=O)[C@H]2CCCN2C(=O)[C@H](CC(C)C)NC(=O)[C@@H](Cc2ccccc2)N(C)C(=O)[C@H](CC(C)C)N(C)C(=O)[C@@H](C(C)C)NC(=O)[C@H](C)NC(=O)[C@H]2CCCN2C(=O)[C@@H]2CCCN2C1=O [SEQ ID NO 94, *L*fLp*LiPpAv] (cyclo(A[dV][NMeL][dNMeF]L[dP][NMeL][dI]P[dP]))
Result string: 2.69

Query string: // fetch Papp given entry CC(C)[C@@H]1C(=O)N[C@@H](Cc2ccccc2)C(=O)N2CCC[C@H]2C(=O)N(C)[C@H](Cc2ccccc2)C(=O)N[C@H](C)C(=O)N2CCC[C@H]2C(=O)N1C (single isomer, unassigned) [Design D6.8.p1, *faP*vFP]
Result string: 3.47

Query string: Please supply the value of reported Papp for the item CC[C@H](C)[C@@H]1NC(=O)[C@@H]2CCCN2C(=O)[C@H]2CCCN2C(=O)[C@@H](CC(C)C)NC(=O)[C@@H](CC(C)C)N(C)C(=O)[C@@H](C(C)C)NC(=O)[C@H](C(C)C)NC(=O)[C@H]2CCCN2C(=O)[C@@H]2CCCN2C(=O)[C@H]([C@@H](C)CC)NC(=O)[C@H](C)N(C)C1=O [Design D11.13, PpVv*llpPI*AI] (cyclo(I[NMeA]IP[dP]V[dV][dNMeL][dL][dP]P))
Result string: 1.43

Query string: Give recorded Papp. CC(C)C[C@H]1NC(=O)[C@@H](C)NC(=O)[C@@H](C)NC(=O)[C@H]2CCCN2C(=O)[C@@H]2CCCN2C(=O)[C@H]2CCCN2C(=O)[C@@H](C)NC(=O)[C@@H](Cc2ccccc2)N(C)C(=O)[C@H]2CCCN2C(=O)[C@@H](CC(C)C)NC(=O)[C@@H](CC(C)C)NC1=O [Design D11.25, lp*fapPpaall] (cyclo([dP][dA][dA][dL][dL][dL][dP][dNMeF][dA][dP]P))
Result string: 0.417

Query string: Output Papp of CC(C)C[C@@H]1C(=O)N2CCC[C@@H]2C(=O)N(C)[C@@H](C(C)C)C(=O)N[C@@H](C(C)C)C(=O)N2CCC[C@H]2C(=O)N2CCC[C@@H]2C(=O)N[C@@H](C)C(=O)N[C@H](C(C)C)C(=O)N(C)[C@@H](CC(C)C)C(=O)N[C@@H](C)C(=O)N1C [Design D10.6, PpAv*LA*lp*VV] (cyclo(A[dNMeL][dP][NMeV]VP[dP]A[dV][NMeL]))
Result string: 0.509

// next entry
Query string: # return recorded Papp for entry CC(C)C[C@@H]1C(=O)N[C@H](CC(C)C)C(=O)N2CCC[C@@H]2C(=O)N2CCC[C@H]2C(=O)N(C)[C@H](CC(C)C)C(=O)N[C@H](CC(C)C)C(=O)N2CCC[C@@H]2C(=O)N2CCC[C@H]2C(=O)N1C [Design D8.4, pP*llpP*ll] (cyclo([dNMeL][dL][dP]P[dNMeL][dL][dP]P))
Result string: 0.0358
